# credit: PubChem BioAssay

Assay: probe aNOTCH3 binding on compound microarray – biochemical, small-molecule microarray, 635/667 nm fluorescence, primary screen (AID 1120);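 further: probe is a biotin-tagged antibody raised against NOTCH3 rather than NOTCH3 protein; score merges spot fluorescence near 667 nm with spot signal to noise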
Settings: higher = more signal
Attribute measured: composite z-score

O=C1c2ccccc2[C@@]2(Cc3ccccc3N(Cc3ccccc3)C2=O)[C@H](c2ccc(CO)cc2)N1Cc1ccccc1Cl    -0.279
C=CC[C@@]12N=C(c3ccc(OCCCO)cc3)O[C@@H]1c1ccccc1N(CCC)C2=O    0.0968
COC(=O)C(CC#Cc1ccc2c(c1)[C@]1(C(=O)N2)[C@H](c2ccc(OCCO)cc2)N2[C@H](c3ccccc3)[C@H](c3ccccc3)OC(=O)[C@H]2[C@@H]1C(=O)N1CCCCCCC1)C(=O)OC    1.75
COc1ccc(C#Cc2ccc3c(c2)[C@]2(C(=O)N3)[C@H](C(=O)O)[C@H]3C(=O)O[C@H](c4ccccc4)[C@H](c4ccccc4)N3[C@@H]2c2ccccc2OCCO)cc1    -0.301
O=C(NCC(O)CO)[C@@]1(CCS(=O)(=O)c2ccccc2)N=C(c2ccc(OCCCO)cc2)O[C@H]1c1ccccc1 (stereo partly drawn)    0.177
CC(C)(C)N1CC=CC23O[C@@H]4C=CCCOC(=O)C4[C@H]2C(=O)N(CCCCCCO)[C@@H]3C1=O (stereo partly drawn)    -0.0716
CC1CC/C=C\[C@H]2OC34C=CCN(C(C)(C)C)C(=O)[C@H]3N(CCCO)C(=O)[C@@H]4C2C(=O)O1 (stereo partly drawn)    -0.155
CC1=C([C@H](O)CCc2ccccc2)[C@H](CO)n2c(=O)n(-c3ccccc3)c(=O)n2C1    -0.187
COC(=O)[C@@]1(Cc2ccccc2)[C@H]2c3cc(C(=O)N(C)C)n(CCSC(=N)N)c3C[C@H]2CN1C(=O)c1ccccc1    0.0159
CO[C@H]1O[C@H](CO)[C@@H](OC(=O)Nc2ccc3c(c2)OCO3)[C@H](OC(=O)Nc2ccccc2-c2ccccc2)[C@H]1OC(=O)Nc1ccccc1-c1ccccc1    0.214
COCCOC(=O)N1C(=O)[C@@]2(c3cc(C#CCC(C(=O)OC)C(=O)OC)ccc31)[C@H](C(=O)Nc1nc3ccccc3s1)[C@H]1C(=O)O[C@H](c3ccccc3)[C@H](c3ccccc3)N1[C@@H]2c1ccc(OCCO)cc1    0.414
O=C1C2C=CC(C(O)C3CCCCC3)N(n3cnnc3)C2C(=O)N1Cc1ccccc1 (stereo not drawn)    0.341
CCCC=C(CCC)[C@@H](NC(=O)c1ccc(C(F)(F)F)cc1)c1ccc(C(F)(F)F)cc1    0.326
CC(C)N1C(=O)c2ccccc2[C@@H](C(=O)NCC(F)(F)F)[C@@H]1c1ccc(CO)cc1    -0.1
C=CCOC(=O)[C@H]1[C@@H]2C(=O)O[C@@H](c3ccccc3)[C@@H](c3ccccc3)N2[C@@H](c2ccc(OCCOC(=O)[C@@H]3C[C@@H]4C(=O)N[C@@H](CCCC[N+](C)(C)C)C(=O)N4[C@@H]3c3ccc(O)cc3)cc2)[C@]12C(=O)Nc1ccc(I)cc12    -0.0647
COc1ccc([Si](C)(C)[C@H]2[C@H](CCO)O[C@@]3(C(=O)N(Cc4cccc(N5C(=O)c6ccccc6Oc6ccccc65)c4)c4ccccc43)[C@@H]2C)cc1    -0.0647
COc1ccc([Si](C)(C)[C@H]2[C@H](CC(=O)N3Cc4ccccc4C[C@H]3CO)O[C@@]3(C(=O)N(C)c4ccccc43)[C@@H]2C)cc1    0.163
CC(C)C(O)C1C=CC2C(=O)NC(=O)C2N1Nc1ccccn1 (stereo not drawn)    -0.0044
O=C(NCC(O)CO)C1N=C(c2ccc(OCCCO)cc2)N(c2ccccc2)O1 (stereo not drawn)    -0.0996
CCCC=C(CCC)[C@@H](NC(=O)OCC(C)C)c1ccc(C(=O)OC)cc1    -0.0328
COC(=O)[C@@]1(Cc2ccc(F)cc2)[C@H]2c3cc(C(=O)N(C)C)n(CCc4ccc(O)c(O)c4)c3C[C@H]2CN1C(=O)c1ccccc1    0.0807
C=CCN1C(=O)[C@@]2(O[C@@H](CCn3cc([C@H](O)c4ccccc4)nn3)[C@H]([Si](C)(C)c3ccc(OC)cc3)[C@H]2C)c2cc(N3C(=O)c4cccc5cccc3c45)ccc21    -0.272
CCCCC(O)C1C=CC2C(=O)N(c3ccccc3)C(=O)C2N1Nc1ccc(C#N)cc1 (stereo not drawn)    0.426

---

Test: calcein-AM signal in unstimulated myeloma cells – cell-based, calcein-AM fluorescence, 48 h, PK04 Diversity Set, profiling panel (AID 1166);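 further: cells grown under basal conditions without added stimulus; test concentration not given here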
Conditions: RPMI8226 myeloma viability, higher = more signal
Catalogue of z-score values
Attribute measured: z-score

COC(=O)[C@@]1(Cc2ccccc2)N=C(c2ccc(OCCCO)cc2)O[C@H]1c1ccccc1CN=[N+]=[N-]    -3.96
CCOC(=O)C1=CC[C@@H](c2ccc(OC)cc2)N(S(=O)(=O)c2ccc(C)cc2)[C@H]1c1ccc(C)cc1    0.583
COC(=O)c1cccc([C@H]2OC(=CC(=O)OC(C)C)C[C@@H](c3cccc(C(=O)OC)c3)O2)c1    -1.64
COC(=O)C(CC#Cc1ccc2c(c1)[C@]1(C(=O)N2)[C@H](c2ccccc2OCCO)N2[C@H](c3ccccc3)[C@H](c3ccccc3)OC(=O)[C@H]2[C@@H]1C(=O)N1CCc2cc(OC)c(OC)cc2C1)C(=O)OC    -0.0217
CN(C)CCCNC(=O)[C@@H]1c2ccccc2C(=O)N(Cc2ccccc2C(F)(F)F)[C@H]1c1ccc(CO)cc1    1.09

---

Biological target: Homeobox protein Hox-A13 (Mus musculus) (UniProt Q62424)
Sequence (Q62424 whole entry, looked up): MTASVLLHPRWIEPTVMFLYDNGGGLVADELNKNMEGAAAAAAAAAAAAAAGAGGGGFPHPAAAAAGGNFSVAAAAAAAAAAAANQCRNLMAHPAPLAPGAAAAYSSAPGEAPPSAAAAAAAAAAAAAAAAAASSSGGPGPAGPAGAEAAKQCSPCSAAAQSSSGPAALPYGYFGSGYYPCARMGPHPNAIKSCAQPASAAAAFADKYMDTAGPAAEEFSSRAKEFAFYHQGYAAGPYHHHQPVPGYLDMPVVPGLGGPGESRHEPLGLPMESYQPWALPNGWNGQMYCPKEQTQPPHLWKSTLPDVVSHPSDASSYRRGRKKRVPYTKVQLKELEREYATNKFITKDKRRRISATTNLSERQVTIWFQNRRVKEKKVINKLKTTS
Assay: disruptors of Hoxa13 oligonucleotide interaction – biochemical, fluorescence polarization, labeled oligonucleotide, primary screen (AID 1185)
Settings: Hoxa13:DNA binding, 15 min, higher = more signal, called active from +8 up or from −8 down
Class true: z-score at least -4. Class false: z-score below -4.

O=C1OCCC=C[C@H]2OC34C=CCN(c5ccc6ccccc6c5)C(=O)[C@H]3N(CCO)C(=O)[C@@H]4C12 (some centres undefined)    false
CN1C(=O)C2C(C1=O)C1C=C(c3ccc(CO)cc3)C2C(C2CC2)N1C (centres undefined)    false
O=C(NCCN1CCOCC1)[C@@H]1c2ccccc2C(=O)N(Cc2ccc(OC(F)(F)F)cc2)[C@H]1c1ccc(CO)cc1    false
CCCCC(O)C1C=CC2C(=O)N(c3ccccc3)C(=O)C2N1Nc1ccc(C#N)cc1 (centres undefined)    true
CCCCCCc1nc(Cc2cc(OC)c(OC)c(OC)c2)cc2c1[Si](C(C)C)(C(C)C)O[C@H]2c1ccccc1    true
O=C(NC1CC1)[C@@H]1c2ccccc2C(=O)N(Cc2ccc(OC(F)(F)F)cc2)[C@H]1c1ccc(CO)cc1    true
O=C(NCc1ccc(F)cc1)[C@H]1C[C@H]2C(=O)N3CCC[C@H]3C(=O)N2[C@H]1c1ccc(O)cc1    true
CC(C)=CCCC(C)=CC(O)C1C=CC2C(=O)NC(=O)C2N1Nc1ccccn1 (centres undefined)    false
C=C(CCCC)C(=O)CC[C@H](OC(=O)c1ccccc1-c1ccccc1C(=O)O)c1ccc(OCCO)cc1    false

---

Consider the following molecules and their measured composite z-score readings.
Test system: Chordin-like protein 2 (CHRDL2)
Assay: compounds binding chordin-like 2 – biochemical, small-molecule microarray, 635 nm fluorescence, primary screen (AID 1126);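 further: printed compound slides probed with Chrdl2 protein at 4 µg/mL for 1 h at 4 C; score merges 667 nm emission intensity with signal to noise over three replicate slides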
Conditions: fluorescence 635 nm, higher = more signal
Attribute measured: composite z-score

O=C(N1CCOCC1)[C@@]1(Cc2ccccc2)COC(c2ccc(OCCCO)cc2)=N1    -0.354
C=C(C)[C@@H]1CC=C(C(O)C2C=CC3C(=O)N(c4ccccc4)C(=O)C3N2Nc2ccc([N+](=O)[O-])cc2)CC1 (stereo not given in full)    0.077
CN(C)CCCCNC(=O)[C@H]1C[C@H]2C(=O)N3CCC[C@H]3C(=O)N2[C@H]1c1cccc(OCCO)c1    -0.52
CC(C)OC(=O)CC(=O)CC(O)c1cccc([N+](=O)[O-])c1 (stereo not given)    0.01
COc1cc(CO)cc(I)c1O[C@H]1C=C(C(=O)NCCO)C[C@@H](NC2CCCCCC2)[C@@H]1O    0.714

---

Assay: budding yeast growth modifiers under rapamycin – strain BY4716, OD600, 96 h, primary screen (AID 1091); further: test concentration not given here
Conditions: S. cerevisiae BY4716 + rapamycin, higher = more signal, called active from +8 up or from −8 down
Cut-off 0.2 on z-score, inclusive. At or above means condition met; below means condition not met.

C[N+](C)(C)CCCCNC(=O)[C@H]1C[C@H]2C(=O)N[C@@H](Cc3ccccc3)C(=O)N2[C@H]1c1cccc(OCCO)c1    condition not met
C=CC[C@]1(C(=O)NCC(O)CO)COC(c2ccc(OCCCO)cc2)=N1 (stereo not given in full)    condition met
CCCCC(O)C1C=CC2C(=O)N(c3ccccc3)C(=O)C2N1Nc1ccc([N+](=O)[O-])cc1 (stereo not given)    condition not met
C=CC[C@@]1(C(=O)N(C)C)N=C(c2ccc(OCCCO)cc2)O[C@@H]1c1ccccc1CN=[N+]=[N-]    condition not met
